Reported inhibition at 2000 µM by item:
Molecular target: CAD de peuplier (Populus deltoides, UniProt P31657)
Construct: CAD de peuplier isolée selon la méthode deSARNI et al,1984; from tissue; host or cells: poplar plant material
Sequence (P31657 1-357): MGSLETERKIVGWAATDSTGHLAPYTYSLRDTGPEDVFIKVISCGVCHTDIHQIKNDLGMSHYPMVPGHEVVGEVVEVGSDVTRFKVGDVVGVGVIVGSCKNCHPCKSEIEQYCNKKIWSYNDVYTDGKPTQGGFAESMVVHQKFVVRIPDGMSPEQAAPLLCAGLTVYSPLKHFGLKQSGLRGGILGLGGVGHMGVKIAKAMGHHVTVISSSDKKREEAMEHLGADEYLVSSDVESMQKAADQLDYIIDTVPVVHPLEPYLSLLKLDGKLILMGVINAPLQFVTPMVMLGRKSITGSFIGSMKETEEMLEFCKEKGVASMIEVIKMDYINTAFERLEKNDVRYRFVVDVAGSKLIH
Assay: In vitro inhibition of isolated poplar cinnamyl alcohol dehydrogenase (CAD) at 2 mM
Type: biochemical
Details: 2mM, CAD de peuplier, read-out: Inhibition à 2mM %
Only the number, expressed in %, is required.

Past entries and their recorded results:
CC(C)(C)OC(=O)CS(=O)(=O)NC1CCCCC1 [compound 14] = 0
CC(C)(C)OC(=O)CS(=O)(=O)Nc1ccccc1 [composé 7a] = 50
O=C(O)CSCC(=O)c1ccccc1 [Acide oxo-5-phényl-5-thia-3, reference compound] = 40
CC(C)(C)OC(=O)C[S+]([O-])Nc1ccccc1N (centres unmarked) [composé 5] = 90
CC(C)(C)OC(=O)C[S+]([O-])Nc1ccccc1 (centres unmarked) [composé 1] = 50
CC(C)(C)OC(=O)C(C)(C)[S+]([O-])Nc1ccccc1 (centres unmarked) [compound 15] = 0
CC(C)[S+]([O-])Nc1ccccc1 (centres unmarked) [NPSP, N-(phényl) sulfinamoyl d'isopropyle, reference compound] = 0
O=C(O)CS(=O)(=O)Nc1ccccc1 [NPS, N-(phényl) sulfamoyle] = 45

Ask: # query: inhibition at 2000 µM | item CC(C)(C)OC(=O)C[S+]([O-])NC1CCCCC1 (centres unmarked) [compound 17] | system: CAD de peuplier (Populus deltoides, UniProt P31657)
Reply: 0

Ask: Also CC(C)(C)OC(=O)C[S+]([O-])Nc1ccccc1O (centres unmarked) [composé 2] ?
Reply: 90

Ask: Note, next up: CC(C)(C)OC(=O)CC(=O)Nc1ccccc1 [PCAD, reference compound]
Reply: 0
